Target: T1, control peptide A2E-4/HLA-A*02:01 complex on T2 cells (member of the P19 mixture) (human)
T1 construct: Loaded on T2 cells as part of the mixture of 19 control peptides
Assay: flow cytometry, phage on T2 cells
Method: Individual phage clones from enriched phage display panning pools against PSA146/HLA-A*02:01 complex were incubated in the coated plates. Binding of the phage clones was detected by HRP-conjugated anti-M13 antibodies and developed using HRP substrate. The absorbance was read at 450 nm. […] Then, unique antibody clones were identified through DNA sequencing of ELISA-positive clones. […]
READOUT TYPE: binding result

INSERT INTO measurements (binder, observed_result) VALUES
  ('PSA146/HLA-A*02:01-specific scFv phage clone #14 (scFv, V domains shown) VH: EVQLVQSGAEVKKPGASVKVSCKASGYTFTGYFMHWVRQAPGQGLEWMGGFDPEDGETIYAQKFQGRVTMTEDTSTDTAYMELSSLRSEDTAVYYCARYSYDLWGQGTLVTVSS VL: QTVVTQEPSLTVSPGGTVTLTCASSTGAVTSGYYPNWFQQKPGQAPRALIYSTSNKHSWTPARFSGSLLGGKAALTLSGVQPEDEAEYYCLLYYGGAQWVFGGGTKLTVLG', 'no binding'),
  ('PSA146/HLA-A*02:01-specific scFv phage clone #15 (scFv, V domains shown) VH: QVQLVQSGAEVKKPGSSVKVSCKASGGTFSSYAISWVRQAPGQGLEWMGRIIPILGIANYAQKFQGRVTITADKSTSTAYMELSSLRSEDTAVYYCARVSQPVYGSSTYDIWGQGTLVTVSS VL: QAVLTQPPSASGTPGQRVTISCSGRSSNLGSNSVNWYQQVPGTAPKLLIFDNHQRPSGVPDRFSGSKSGTSASLAISGLRSEDETDYYCAAWDDSLNSVVFGGGTKLTVLG', 'no binding'),
  ('PSA146/HLA-A*02:01-specific scFv phage clone #9 (scFv, V domains shown) VH: QVQLVQSGAEVKKPGASVKVSCKASGYTFTSYGISWVRQAPGQGLEWMGWISAYNGNTNYAQKLQGRVTMTTDTSTSTAYMELRSLRSDDTAVYYCARSSQYYVWDSWGQGTLVTVSS VL: QSVVTQPPSVSGAPGQRVTISCTGSSSNFGAGYDVHWYQQLPGTAPKLLIYGNSNRPSGVPDRFSGSKSGTSASLAITGLQAEDEADYYCQSYDSSLSGWVFGGGTKLTVLG', 'no binding');
